Assay: BET inhibitor-based combinations targeting novel dependencies in MECOM-rearranged (r) AML: MV-4-11 cell line (AID 2202233); further: nearly all actives have a fitted effect of over 45% in size
Conditions: MV-4-11 AML viability, CellTiter-Glo luminescence, 48 h; series mostly up to 46 µM
Method: Ecotropic viral insertion site 1 (EVI1) is located on chromosome 3q26.2 as part of the MECOM (MDS and EVI1 complex) locus. […] A collection of 2480 mechanistically annotated dugs (MIPE v5.0) was used to screen four 3q26.2 rearranged AML cell lines and three non-3q26.2 rearranged AML cell lines. […] Cell viability was determined by luminescence based, Cell Titer Glo assay (Promega). […] Luminescence readings were taken using a Viewlux (PerkinElmer) with a 2 s exposure time per plate. […]
Records with an inconclusive call do not appear. Calls of active or inactive are those of the source. The call rests on the fitted dose curve; in most records, active means well fitted inhibition curve with a large enough effect; inconclusive means small, poorly fitted or top-dose-only effect; inactive means no such curve, though single readings can be large or run the other way.
Possible outcomes: active, inactive

compound: Nc1ccn([C@@H]2O[C@H](CO)[C@@H](O)C2O)c(=O)n1 (some centres undefined)
labelValue: active
--
compound: Cn1ncc(Cl)c1-c1cc(C(=O)N[C@H](CN)Cc2ccc(F)c(F)c2)sc1Cl
labelValue: active
--
compound: CNCc1ccc(C)c(NC(=O)c2ccc(Nc3nc(-c4ccccc4)c4ccccc4n3)cc2)c1
labelValue: active
--
compound: Cn1cc(-c2ccc(-c3cncc(Cl)c3N3CCC4(CCNC4=O)CC3)cc2)cn1
labelValue: active
--
compound: C[C@H](NC(=O)/C(C#N)=C/c1cccc(Br)n1)c1ccccc1
labelValue: active
--
compound: CN[C@@H](C)C(=O)N[C@H](C(=O)N1CCC[C@H]1c1nc(C(=O)c2ccc(F)cc2)cs1)C1CCCCC1
labelValue: active
--
compound: CN1CCN(Cc2ccc(Nc3ncc(Cl)c(Nc4ccccc4S(=O)(=O)N(C)C)n3)cc2)CC1
labelValue: active
--
compound: CC1(C)C(N(O)C(=O)Nc2ccc(Cl)cc2)N(c2ccc(Cl)cc2)C(=O)N1CC(=O)N/N=C/C=C/c1ccc([N+](=O)[O-])o1 (centres undefined)
labelValue: active
--
compound: Cc1c[nH]c2nc(Nc3ccc(N4CCN(C)CC4)c(F)c3)nc(-c3cccc(CC#N)c3)c12
labelValue: active
--
compound: Nc1ncc(C(=O)NC2CN(C(=O)C3CC3)C2)c2ccc(-c3cccc(F)c3)nc12
labelValue: active
--
compound: C[C@H]1[C@H](C)CC[C@]2(C(=O)O)CC[C@]3(C)C(=CC[C@@H]4[C@@]5(C)C[C@@H](O)[C@H](O)[C@@](C)(CO)[C@@H]5CC[C@]43C)[C@H]12
labelValue: inactive
--
compound: C=CC(=O)Nc1cc2c(Nc3ccc(F)c(Cl)c3)ncnc2cc1C#CC(C)(C)N1CCN(C)CC1
labelValue: active
--
compound: CN1C(C(=O)Nc2ccccn2)=C(O)c2sccc2S1(=O)=O
labelValue: inactive
--
compound: C[C@@H]1N=C(N)NC(N(C)C)=N1
labelValue: inactive
--
compound: Cc1c(NC(=O)OCC2COCCN2)cn2ncnc(Nc3ccc4c(cnn4Cc4cccc(F)c4)c3)c12 (centres undefined)
labelValue: active
--
compound: CC(C)(C)c1[nH]cnc1/C=c1\[nH]c(=O)/c(=C/c2ccccc2)[nH]c1=O
labelValue: active
--
compound: C[C@H]1CC2[C@@H]3CCC4=CC(=O)C=C[C@]4(C)[C@@]3(F)[C@@H](O)C[C@]2(C)[C@@]1(O)C(=O)CO (some centres undefined)
labelValue: inactive
--
compound: N#Cc1c(N)nc(N)nc1N[C@H](c1nc2c(F)ccc(Cl)c2c(=O)n1-c1cccnc1)C1CC1
labelValue: active
--
compound: CC(C)(O)CNc1ncc(-c2ccnc(Nc3ccncc3)n2)c(CC2CC2)n1
labelValue: active

###

assay: BET inhibitor-based combinations targeting novel dependencies in MECOM-rearranged (r) AML: SET-2 cell line (AID 2202231); conditions: SET-2 AML cells viability, CellTiter-Glo luminescence, 48 h; active compounds read low, concentration not given here;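 further: plate controls were DMSO treated cells for no effect and wells without cells for full effect; nearly all actives have a fitted effect of over 35% in size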
Records with an inconclusive call do not appear.
quantityMeasured: viability (%)

molecule: CCCc1cc(C)[nH]c(=O)c1CNC(=O)c1cc(-c2ccc(N3CCN(C(C)C)CC3)nc2)cc2c1cnn2C(C)C
quantityMeasured: viability
resultValue: 110
//
molecule: Nc1[nH]nc2nnc(-c3c(-c4ccccc4)nn4ccccc34)cc12
quantityMeasured: viability
resultValue: 111
//
molecule: O=C1OC2(CCC(C(=O)Nc3ccn(-c4ccccc4F)n3)CC2)c2cnccc21 (centres undefined)
quantityMeasured: viability
resultValue: 90.4
//
molecule: NCC(=O)Nc1cncc(-c2nn3c(=O)cc(N4CCNCC4)nc3s2)c1
quantityMeasured: viability
resultValue: 111
//
molecule: C[C@]12CC[C@@H]3c4ccc(O)cc4CC[C@H]3[C@@H]1C[C@@H](O)[C@@H]2O
quantityMeasured: viability
resultValue: 109
//
molecule: Cn1c(-c2ccccc2C(F)(F)F)nnc1C12CCC(c3noc(C4CC(F)(F)C4)n3)(CC1)CC2
quantityMeasured: viability
resultValue: 105
//
molecule: CC(C)=CCC/C(C)=C/CC/C(C)=C/CSc1ccccc1C(=O)O
quantityMeasured: viability
resultValue: 106
//
molecule: C[C@H]1CC2[C@@H]3CCC4=CC(=O)C=C[C@]4(C)[C@@]3(F)[C@@H](O)C[C@]2(C)[C@@]1(O)C(=O)CO (some centres undefined)
quantityMeasured: viability
resultValue: 115
//
molecule: Clc1ccc(CCC(Cn2ccnc2)Sc2c(Cl)cccc2Cl)cc1 (centres undefined)
quantityMeasured: viability
resultValue: 81.3
//
molecule: N#Cc1ccc(N(Cc2ccc(Br)cc2)n2cnnc2)cc1
quantityMeasured: viability
resultValue: 93.5
//
molecule: COc1cc2c(NC3CCN(C)CC3)nc(N3CCCN(C)CC3)nc2cc1OCCCN(C)C
quantityMeasured: viability
resultValue: 112
//
molecule: O=C(O)CCCCN(CCc1ccccc1OCc1ccc(CCc2ccccc2)cc1)Cc1ccc(C(=O)O)cc1
quantityMeasured: viability
resultValue: 108
//
molecule: C#Cc1cccc(Nc2ncnc3cc4c(cc23)OCCOCCOCCO4)c1
quantityMeasured: viability
resultValue: 93.5
//
molecule: CC#CC(=O)N1CC[C@@H](n2c(=O)n(-c3ccc(Oc4ccccc4)cc3)c3c(N)ncnc32)C1
quantityMeasured: viability
resultValue: 83.2
//
molecule: CNC(=O)[C@H](Cc1c[nH]c2ccccc12)NC(=O)[C@@H](CC(=O)NO)CC(C)C
quantityMeasured: viability
resultValue: 112
//
molecule: CC1Oc2cc(cnc2N)-c2c(nn(C)c2C#N)CN(C)C(=O)c2ccc(F)cc21 (centres undefined)
quantityMeasured: viability
resultValue: 105
//
molecule: O=C(NCc1ccc(S(=O)(=O)c2cccc(C(F)(F)F)c2)cc1)c1cnc2[nH]ncc2c1
quantityMeasured: viability
resultValue: 110
//
molecule: C[C@]12CCC3=C4CCC(=O)C=C4CC[C@H]3[C@@H]1CC[C@@]2(O)CC#N
quantityMeasured: viability
resultValue: 108
//
molecule: Cc1c(F)cccc1NC(=O)Nc1ccc(Cl)c(S(=O)(=O)[C@H]2CCCNC2)c1O
quantityMeasured: viability
resultValue: 112

###

assay: BET inhibitor-based combinations targeting novel dependencies in MECOM-rearranged (r) AML: OCI-AML3 cell line (AID 2202232); conditions: CellTiter-Glo luminescence, 48 h; OCI-AML3 viability; series mostly up to 46 µM; further: nearly all actives have a fitted effect of over 35% in size
Records with an inconclusive call do not appear. Calls of active or inactive are those of the source. Calls come from the whole dose curve; as a rule, active = well fitted inhibition curve with a large enough effect; inconclusive = small, poorly fitted or top-dose-only effect; inactive = no such curve, though single readings can be large or run the other way.
Possible outcomes: 1 for active, 0 for inactive

smilesText: COC1=C(OC)C(=O)C(C/C=C(\C)CC/C=C(\C)CC/C=C(\C)CC/C=C(/C)CC/C=C(\C)CC/C=C(\C)CC/C=C(\C)CC/C=C(\C)CC/C=C(\C)CCC=C(C)C)=C(C)C1=O
labelValue: 0

smilesText: C=CC(=O)Nc1cccc(C)c1Nc1ncc2cc(-c3c(Cl)c(OC)cc(OC)c3Cl)ccc2n1
labelValue: 1

smilesText: CN(Cc1ccc(/C=C/C(=O)NO)cc1)CC12CC3CC(CC(C3)C1)C2
labelValue: 1

smilesText: O=C(CCc1ccc(O)cc1)c1c(O)cc(O)cc1O[C@@H]1O[C@H](CO)[C@@H](O)[C@H](O)[C@H]1O
labelValue: 0

smilesText: CO[C@H]1C(=O)[C@]2(C)[C@@H](OC)C[C@H]3OC[C@@]3(OC(C)=O)[C@H]2[C@H](OC(=O)c2ccccc2)[C@]2(O)C[C@H](OC(=O)[C@H](O)[C@@H](NC(=O)OC(C)(C)C)c3ccccc3)C(C)=C1C2(C)C
labelValue: 1

smilesText: c1ccc2[nH]c(-c3cscn3)nc2c1
labelValue: 0

smilesText: COc1cc(C(C)C)c2c(c1)S(=O)(=O)N(COc1cc(=O)n3cccc(OCCN4CCCCC4)c3n1)C2=O
labelValue: 1

###

Assay: BET inhibitor-based combinations targeting novel dependencies in MECOM-rearranged (r) AML: OCI-AML3 cell line (AID 2202232); further: nearly all actives have a fitted effect of over 35% in size
Conditions: CellTiter-Glo luminescence, 48 h; OCI-AML3 viability; series mostly up to 46 µM
Protocol: Ecotropic viral insertion site 1 (EVI1) is located on chromosome 3q26.2 as part of the MECOM (MDS and EVI1 complex) locus. […] A collection of 2480 mechanistically annotated dugs (MIPE v5.0) was used to screen four 3q26.2 rearranged AML cell lines and three non-3q26.2 rearranged AML cell lines. […] Cell viability was determined by luminescence based, Cell Titer Glo assay (Promega). […] Luminescence readings were taken using a Viewlux (PerkinElmer) with a 2 s exposure time per plate. […]
Records with an inconclusive call do not appear. Active and inactive are the calls of the source. The call rests on the fitted dose curve; in most records, active means well fitted inhibition curve with a large enough effect; inconclusive means small, poorly fitted or top-dose-only effect; inactive means no such curve, though single readings can be large or run the other way.
Possible outcomes: active, inactive

smilesText: COc1cc(-c2cc(-c3ccc(N4CCNCC4)cc3)cnc2C)cc(OC)c1OC
labelValue: active
//
smilesText: C[C@@H]1Cc2c([nH]c3ccccc23)[C@@H](c2c(F)cc(/C=C/C(=O)O)cc2F)N1CC(C)(C)F
labelValue: inactive
//
smilesText: CC(/C=C1\SC(=S)N(CC(=O)O)C1=O)=C\c1ccccc1
labelValue: inactive
//
smilesText: CCCCCCCOc1ccc(CCC(N)(CO)CO)cc1C(F)(F)F
labelValue: active
//
smilesText: COc1cc(C)[nH]c(=O)c1CN1CCc2c(Cl)cc([C@H](OC)C3COC3)c(Cl)c2C1=O
labelValue: inactive
